- Test system: clinical isolate 126 (INH resistant)
- methodNotes: microbe, parasite or virus in culture
- Assay type: cell-based, Mycobacterium tuberculosis
- assayContext: Mycobacterium tuberculosis
experimentalReadout: MIC (µg/mL)
Output spec: scalar in µg/mL, unitless text.

**Q:** Fill in the blank: the reported MIC of CC[C@@H](CO)NCCN[C@@H](CC)CO [EMB, ethambutol, reference compound] is ____.
**A:** 0.25

**Q:** If you can, please state the reported MIC value of CC1=CCC2CC1C2(C)C (stereo not drawn) .
**A:** 128

**Q:** // query MIC value for entry NNC(=O)c1ccncc1 [INH, isoniazid, reference compound]
**A:** 0.5

**Q:** Can you look up the measured MIC of C=C1CCC2(C(C)C)CC12 (stereo not drawn) for me?
**A:** 128

**Q:** State the recorded MIC for this entry: C=CC(=C)CCC=C(C)C
**A:** 256

**Q:** Can you share its MIC? I mean this compound: CO[C@H]1/C=C/O[C@@]2(C)Oc3c(C)c(O)c4c(O)c(c(/C=N/N5CCN(C)CC5)c(O)c4c3C2=O)NC(=O)/C(C)=C\C=C\[C@H](C)[C@H](O)[C@@H](C)[C@@H](O)[C@@H](C)[C@H](OC(C)=O)[C@@H]1C [RMP, rifampicin, reference compound]
**A:** 0.25
